# System: T. rubrum (PTCC 5143)
# assayMethodText: Microdilution MIC90, strain K
# Type: cell-based, Trichophyton rubrum
# details: Trichophyton rubrum, PTCC5143, 48 h, filamentous fungi, 48 h at 37 °C, triplicate
Here, each record is paired with measured MIC90 data.
Use mg/L as the unit, but write only the number.

molecule: O=C(Nc1ccc(Cl)cc1)Nc1nnc(SCC(O)(Cn2cncn2)c2ccc(F)cc2F)s1 (stereo not shown) [Compound 8a]
systemUnderTest: T. rubrum (PTCC 5143)
endpointUnit: mg/L
MIC90: 2

Exam item: Quick one: MIC90 for O=C(Nc1nnc(SCC(O)(Cn2cncn2)c2ccc(F)cc2F)s1)Nc1ccc(F)cc1F (stereo not shown) [Compound 8p] ?
Marked response: 16

Exam item: Give its MIC90 value. Item: OC(Cn1cncn1)(Cn1cncn1)c1ccc(F)cc1F [FLC, Fluconazole, reference compound]
Marked response: 1

Exam item: Given COc1cccc(NC(=O)Nc2nnc(SCC(O)(Cn3cncn3)c3ccc(F)cc3F)s2)c1 (stereo not shown) [Compound 8h] , state its recorded MIC90.
Marked response: 2
